Reference for the values: PubChem BioAssay (NCI)

# Test system: UACC-62 melanoma
# assay remarks: NCI-60 one-dose screen, 48 h (100 = growth as untreated, 0 = no growth, -100 = all killed)
# assay context: 10 µM unless noted
The panel holds about 83,000 compounds, 20% with a hit somewhere; the sample as a whole holds those more often.
Note to self: values exactly at 90% are yes (1). So growth at or above 90% is yes (1), below is no (0).

compound | class label
O=C(/C=C/c1csc(Br)n1)NO | no (0)

# next compound below
growth >= 90% for "COc1ccc(-c2cc(-c3ccc(N4CCOCC4)cc3)n3c(n2)nc2ccccc23)cc1OC" ?
yes (1)

---

# Test system: OVCAR-8 ovarian
# assay remarks: NCI-60 one-dose screen, 48 h
# assay context: 10 µM unless noted
About 83,000 compounds went through this panel and 20% of them were active in at least one assay; those are over-represented in the sample as a whole. Active and inactive are the calls of the source. How the source made its calls: active means growth percent below 10; inactive means the rest.
Give one outcome, nothing more. List: Yes for active, No for inactive

// known answers, use as guide
compound | class label
COc1ccc(C(C)=C(c2ccc(OCCN3CCCCCC3)cc2)c2ccc(OCCN3CCCCCC3)cc2)cc1 | Yes
COc1ccc(C2CC(c3cccc(OCCCCOc4cccc(C5=NN(C(C)=O)C(c6ccc(OC)cc6)C5)c4)c3)=NN2C(C)=O)cc1 (stereo not drawn) | No
CC(=O)OCCCCN1C=C/C(=C\C(=O)n2ccc3ccccc32)c2ccccc21 | No
N#Cc1c(-c2cccs2)cc(-c2cnccn2)nc1SCC(=O)N/N=C/c1cccs1 | No
O=C(CSc1nc2ccccc2c(=O)n1-c1ccc(S(=O)(=O)Nc2ccc(Cl)nn2)cc1)Nc1ccc(S(=O)(=O)Nc2ccc(Cl)nn2)cc1 | No
CCOC(=O)C1=C(C)NC(C)=C(C(=O)OCc2ccccc2)C1c1cccc(C#N)c1 (stereo not drawn) | No
CN(C)c1ccc(-c2cc(-c3c[nH]c4ccccc34)nc(N)c2C#N)cc1 | No

Hi, do you know how "CS(=O)(=O)c1nccc(-c2c(-c3cccc(OCc4ccc(Cl)c(C(F)(F)F)c4)c3)nc3sccn23)n1" came out in this test?
No
